Test system: HT-29
experimentSummary: NCI tumour cell line growth inhibition, 48 h
Calls of active or inactive are those of the source. No stated cut-off is given here; in the data, active = GI50 up to about 1.1 µM and inactive = higher.
Parameter call: string, one of 1 (yes) for active, 0 (no) for inactive

compound	cat
CC1CCCC(CC(=O)O)(CC(=O)O)C1 (stereo unspecified)	0 (no)
CCOC(=O)c1c(CN2CCCC2)n(-c2ccccc2)c2cc(Br)c(O)cc12	0 (no)
COc1cc(C2SCC(=O)N2c2ccc(Cl)c(Cl)c2)cc(OC)c1OC (stereo unspecified)	0 (no)

Please share the test call associated with "COc1ccc2c(C(=O)c3cn(CCN4CCOCC4)c4ccccc34)cccc2c1" . 0 (no)

Please share the test call associated with "CCN1C(NN)=NS(=O)(=O)c2ccccc21" . 0 (no)

Please share the test call associated with "Nc1ccc(-c2nc3cc(F)ccc3s2)cc1Br" . 1 (yes)

Please share the test call associated with "CC1(C)N=C(N)N=C(N)N1c1ccc(CCCCc2ccc(Cl)cc2Cl)cc1" . 1 (yes)

* * *

Test system: SR
experimentSummary: NCI tumour cell line growth inhibition, 48 h
Activity calls are given as the source filed them. Rule as the data show it: active = GI50 up to about 1.1 µM and inactive = higher.
GI50 reference

Fill in: GI50 of "C=C(Br)CNCC(=C)Br" is ___ > 100 µM (inactive)

Fill in: GI50 of CC1CC2C3CC(F)C4=CC(=O)C=CC4(C)C3(F)C(O)CC2(C)C1(O)C(=O)CO (stereo not drawn) is ___ > 100 µM (inactive)

Fill in: GI50 of "Cc1ccc([N+](=O)[O-])cc1S(=O)(=O)Nc1ccc(C(=O)/C=C/c2cccs2)cc1" is ___ 18.9 µM (inactive)

Fill in: GI50 of "Nc1sc2c(c1C(=O)c1ccc(Cl)c(Cl)c1)CCCC2" is ___ 27.8 µM (inactive)

Fill in: GI50 of OC1(c2ccccc2)CC2CCC(C1)N2CCCC1(c2ccc(F)cc2)OCCO1 (stereo not drawn) is ___ 27.3 µM (inactive)

Fill in: GI50 of C[C@H]1SC(c2ccc(Cl)cc2Cl)N(NC(=O)c2ccncc2)C1=O (stereo partly drawn) is ___ 55.8 µM (inactive)

Fill in: GI50 of COC(=O)/C(=N\NC(N)=O)C(C(=O)C(=O)Nc1ccccc1OC)c1nc2ccc([N+](=O)[O-])cc2nc1O (stereo not drawn) is ___ > 100 µM (inactive)

Fill in: GI50 of CO[C@]12CC(=O)C3(C(C[C@H]4CC5CC=C6C[C@@H](OC(C)=O)CC[C@]6(OC(C)=O)C5C[C@@]43C)C1)C1C[C@H]3[C@@H]4CC=C5C[C@@H](OC(C)=O)CC[C@]5(OC(C)=O)[C@H]4CC[C@]3(C)C12 (stereo partly drawn) is ___ 5.66 µM (inactive)

* * *

Tested on: UO-31
experimentSummary: NCI tumour cell line growth inhibition, 48 h
The source made the active and inactive calls. No stated cut-off is given here; in the data, active = GI50 up to about 1.1 µM and inactive = higher.
experimentalEndpoint: GI50

For orientation, consider the following solved cases.
compound	GI50
O=[N+]([O-])c1ccc(/C=N\N=c2/ccc([N+](=O)[O-])c[nH]2)cc1	> 100 µM (inactive)
CC(=O)NC(C=O)C(O[C@H](C)C(=O)NC(C)C(=O)NC(CCC(N)=O)C(=O)OCc1ccccc1)C(O)C(O)COC(=O)CCNc1c2ccccc2nc2cccc([N+](=O)[O-])c12 (some centres undefined)	16.9 µM (inactive)
CC1CC(OP(=O)(OCc2ccccc2)OCc2ccccc2)[C@@H](OCc2ccccc2)C(OCc2ccccc2)C1OCc1ccccc1 (some centres undefined)	15.5 µM (inactive)

# next compound below
What GI50 appears in the records for this compound with UO-31? "Cc1cccc(C)c1NC(=O)CCC(=O)NNc1nnc(C)n1N" > 100 µM (inactive)
